Consider the following compounds and their measured IC50 readings.
tgt: UniProt:P21554
Sequence (P21554 whole entry): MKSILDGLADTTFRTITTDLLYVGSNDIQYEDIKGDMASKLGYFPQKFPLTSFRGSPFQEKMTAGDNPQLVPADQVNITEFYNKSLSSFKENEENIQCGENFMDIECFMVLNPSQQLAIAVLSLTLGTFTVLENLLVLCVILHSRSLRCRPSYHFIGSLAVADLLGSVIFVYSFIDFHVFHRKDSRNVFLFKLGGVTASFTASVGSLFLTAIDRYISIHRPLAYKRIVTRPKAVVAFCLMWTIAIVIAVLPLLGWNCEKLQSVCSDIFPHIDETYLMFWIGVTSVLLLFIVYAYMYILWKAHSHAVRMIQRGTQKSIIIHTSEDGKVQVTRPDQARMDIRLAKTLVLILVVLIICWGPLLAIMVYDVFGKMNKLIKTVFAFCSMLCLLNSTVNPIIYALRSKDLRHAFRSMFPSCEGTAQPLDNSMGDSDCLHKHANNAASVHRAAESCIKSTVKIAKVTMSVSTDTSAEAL
assayText: hCB1 radioligand binding assay ([3H]-CP 55,940 displacement)
reportedConditions: hCB1 IC50 (CP displ, nM, HEK), HEK membranes
assayReadout: IC50

1) CCCn1c(C)c(C(=O)c2cc3ccsc3n2CC)c2c1CCCC2; 1000 to 10000 nM
2) CCCn1c(C)c(C(=O)c2cc3ccsc3[nH]2)c2ccccc21; 1000 to 10000 nM
3) Cc1c(C(=O)c2cc3ccccc3[nH]2)c2ccsc2n1CCN1CCOCC1; 1000 to 10000 nM
4) CCCn1c(C)c(C(=O)c2c(C)n(CCC)c3sccc23)c2ccccc21; 1000 to 10000 nM
5) Cc1[nH]c2sccc2c1C(=O)c1cccc2ccccc12; > 10000 nM
6) CCCn1c(C(=O)c2c(C)[nH]c3ccccc23)cc2ccsc21; > 10000 nM
7) CCn1c(C(=O)c2c(C)n(CCN3CCOC3=O)c3ccccc23)cc2ccsc21; > 10000 nM
8) CCCn1c(C)c(C(=O)c2cc3cc(C)[nH]c3s2)c2ccccc21; > 10000 nM
